targetEntity: UniProt:P34972
assayProcedure: functional cAMP assay, CHO cells expressing human CB2
Assay type: cell-based
experimentalContext: Human CB2 EC50 (uM)
Procedure: CHO cells expressing human CB1 or CB2 receptors are seeded 17-24 hours prior to the experiment 50.000 cells per well in a black 96 well plate with flat clear bottom (Corning Costar #3904) in DMEM (Invitrogen No. 31331), 1×HT supplement, with 10% fetal calf serum and incubated at 5% CO2 and 37° C. in a humidified incubator. […] The time-resolved energy transfer is measured by a TRF reader (Evotec Technologies GmbH), equipped with a ND:YAG laser as excitation source. […]
Provide the recorded EC50 for the entries that follow.
Numbers only; they are read as µM.

Notebook: Cc1nc(C(C)(NC(=O)c2cc(OCC(F)(F)F)c(C3(F)CCC3)cn2)C2CC2)no1 (single isomer, unassigned) [Example 306] , EC50 read as 0.0118

Measured EC50, Cc1nc([C@@](C)(CC2CC2)NC(=O)c2cc(OCC(F)(F)F)c(N3CC(F)(F)C3)cn2)no1 (single isomer, unassigned) : 0.0303

Reported EC50 ( Cc1nc(C(C)(CC2CC2)NC(=O)c2cc(OCC(F)F)c(C3CC3)cn2)no1 (single isomer, unassigned) [Example 155] ) = 0.0058

In plain terms, Cc1nc(C(C)(CC2CC2)NC(=O)c2cc(OCC(F)(F)F)c(C3(F)COC3)cn2)no1 (single isomer, unassigned) [Example 136] has a documented EC50 of 0.125

Reported EC50 of CC(CC(N)=O)(NC(=O)c1cc(OCCF)c(C2CC2)cn1)C1CC1 (single isomer, unassigned) [Example 271] : 0.0015

EC50 reading for Cc1nc(C(C)(CS(C)(=O)=O)NC(=O)c2cc(OC(C)CF)c(C3CC3)cn2)no1 (single isomer, unassigned) [Example 295] : 0.0024

CC1(C(NC(=O)c2cc(OCC(F)(F)F)c(C3CC3)cn2)C(N)=O)COC1 (single isomer, unassigned) [Example 269] yielded EC50 of 0.771

Entry CC(CC(N)=O)(NC(=O)c1cc(OCC(F)(F)F)c(N2CC(F)(F)C2)cn1)C1CC1 (single isomer, unassigned) [Example 275] , EC50 reported as 0.0227

The compound listed as Cc1nc(C(C)(CS(C)(=O)=O)NC(=O)c2cc(OCC(F)(F)F)c(C3CCC3)cn2)no1 (single isomer, unassigned) [Example 124] has a reported EC50 of 0.0159

// Cc1nc([C@@](C)(NC(=O)c2cc(OCC(F)(F)F)c(C3CC3)cn2)C2CC2)no1 (single isomer, unassigned; enantiomer a) : EC50 value = 0.0276

Summary for this compound, C[C@H](Oc1cc(C(=O)NC(C)(CC(N)=O)C2CC2)ncc1C1(F)COC1)C(F)(F)F (single isomer, unassigned) [Example 278] : EC50 is 0.0929

CC(CF)Oc1cc(C(=O)NC2(CC(N)=O)CS(=O)(=O)C2)ncc1C1CC1 (single isomer, unassigned) [Example 292] has a reported EC50 of 0.0019

// recorded EC50 for Cc1nc([C@@](C)(NC(=O)c2cc(OCC(F)(F)F)c(Cl)cn2)C2CC2)no1 (single isomer, unassigned; enantiomer b) : 0.11

Measured EC50, CC(CF)Oc1cc(C(=O)NC(C)(CC(N)=O)C2CC2)ncc1C1CC1 (single isomer, unassigned) [Example 302] : 0.001

Consider Cc1nc(C(C)(CS(C)(=O)=O)NC(=O)c2cc(OCCF)c(C3CC3)cn2)no1 (single isomer, unassigned) [Example 279] . Its measured EC50 is 0.173

Form: compound = Cn1nnnc1C(NC(=O)c1cc(OCC(F)(F)F)c(C2CC2)cn1)C(C)(C)C (single isomer, unassigned) [Example 206] ; EC50 = 0.0393

Recorded EC50 (compound CC(CC1CC1)(NC(=O)c1cc(OCC(F)(F)F)c(C2CC2)cn1)c1noc(N)n1 (single isomer, unassigned) [Example 208] ): 0.0092

Recorded result, "CC1(COc2cc(C(=O)NC(C)(C)c3nnc(-c4ccccc4)o3)ncc2C2CC2)COC1" , EC50: 0.0309

Lookup result for Cc1nc([C@](C)(CC(C)(C)C)NC(=O)c2cc(OCC(F)(F)F)c(C3CC3)cn2)no1 (single isomer, unassigned) ; measured EC50: 0.0023

Per the records, this compound ( Cc1nc(C(C)(CS(C)(=O)=O)NC(=O)c2cc(OCC(F)(F)F)c(C3CCC3)cn2)no1 (single isomer, unassigned) [Example 125] ) has EC50 equal to 0.011

EC50 for CNC(=O)C(C)(NC(=O)c1cc(OCC(F)(F)F)c(C2CC2)cn1)c1noc(C)n1 (single isomer, unassigned) [Example 188] is 0.0206

The reported value for Cn1nnnc1C(NC(=O)c1cc(OCC(F)(F)F)c(C2CC2)cn1)C(C)(C)C (centres unmarked) [Example 164] in terms of EC50 is 0.0168

Documented EC50 of "Cc1cnc(C2(NC(=O)c3cc(OCC(F)(F)F)c(C4CC4)cn3)CCOCC2)s1" : 0.0407

###

I'd be grateful if you could share measured pEC50 for these entries.
targetEntity: human CB2 receptors (Homo sapiens (Human))
assayProcedure: functional cAMP assay, CHO cells expressing human CB2
Type: cell-based
experimentalContext: read-out: Human CB2 EC50
pEC50 here is simply -log10 of the concentration when that concentration is written in mol/L.

Observed pEC50, human CB2 receptors (Homo sapiens (Human)), CNC(=O)CC(C)(NC(=O)c1cc(OCC(F)(F)F)c(C2CC2)cn1)C1CC1 (centres unmarked) [Example 229] : 7.94

Value sought: pEC50, system human CB2 receptors (Homo sapiens (Human)), item CCN(C(=O)c1cc(OCC(F)(F)F)c(C2CC2)cn1)C(C)(C)C [Example 107] . Result: 7.09

With human CB2 receptors (Homo sapiens (Human)) as the test system, CNC(=O)C(NC(=O)c1cc(O[C@@H](C)C(F)(F)F)c(C2CC2)cn1)C(C)(C)C (some centres unmarked) [Example 200] showed pEC50 of 8.59

Let me check: Cc1nc(C(C)(NC(=O)c2cc(OCC(F)(F)F)c(C3(F)COC3)cn2)C2CC2)no1 (centres unmarked) [Example 139] , system human CB2 receptors (Homo sapiens (Human)), measured pEC50 is 9.22

I looked up CC(C)CC(C)(CO)NC(=O)c1cc(OCC2CC2)c(Cl)cn1 (centres unmarked) [Example 25] and its pEC50 for human CB2 receptors (Homo sapiens (Human)) was 7.92

###

targetEntity: human CB2 receptors (Homo sapiens (Human))
assayProcedure: functional cAMP assay, CHO cells expressing human CB2
Type: cell-based
experimentalContext: read-out: Human CB2 EC50
Give measured log10 EC50 for each item. Keep answers brief.
Could you please treat all values as log10 of EC50 in nM?

# log10 EC50 (compound: Cc1nc(C(C)(CS(C)(=O)=O)NC(=O)c2cc(O[C@@H](C)C(F)(F)F)c(C3(F)CCC3)cn2)no1 (some centres unmarked) [Example 137] ) is 1.02

Query "C[C@@H](Oc1cc(C(=O)NC2(CC(N)=O)COC2)ncc1C1CC1)C(F)(F)F" yields log10 EC50 of 2.45

Data point: Cc1nc(C(C)(NC(=O)c2cc(OCC(F)(F)F)c(C3CC3)cn2)C(=O)N2CC(F)(F)C2)no1 (centres unmarked) ; log10 EC50 = 1.66

Entry Cc1nc(C(C)(CC2CC2)NC(=O)c2cc(O[C@@H](C)C(F)(F)F)c(C3(F)COC3)cn2)no1 (some centres unmarked) [Example 142] , log10 EC50 reported as 0.61

compound "CNC(=O)CC1(NC(=O)c2cc(O[C@@H](C)C(F)(F)F)c(C3CC3)cn2)COC1" , log10 EC50 observed: 2.06

###

targetEntity: human CB2 receptors (Homo sapiens (Human), UniProt P34972)
Sequence (P34972 whole entry): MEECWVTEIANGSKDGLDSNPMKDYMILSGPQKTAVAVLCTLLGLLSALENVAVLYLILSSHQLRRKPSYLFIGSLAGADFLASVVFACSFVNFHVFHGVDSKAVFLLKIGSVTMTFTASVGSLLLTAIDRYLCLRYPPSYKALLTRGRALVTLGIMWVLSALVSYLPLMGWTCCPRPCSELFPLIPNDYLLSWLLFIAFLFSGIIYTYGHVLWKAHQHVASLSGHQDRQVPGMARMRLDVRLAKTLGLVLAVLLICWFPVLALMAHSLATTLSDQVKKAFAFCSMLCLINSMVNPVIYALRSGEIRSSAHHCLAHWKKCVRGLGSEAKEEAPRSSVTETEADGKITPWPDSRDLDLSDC
assayProcedure: functional cAMP assay, CHO cells expressing human CB2
Type: cell-based
experimentalContext: Human CB2 EC50 (uM)
Provide the recorded log10(EC50) for the entries that follow.
Note: values are log10 of EC50 expressed in µM.

Summary: Cn1nnnc1C(NC(=O)c1cc(OCC(F)(F)F)c(C2CC2)cn1)C(C)(C)C (single isomer, unassigned) [Example 205] , human CB2 receptors (Homo sapiens (Human), UniProt P34972), log10(EC50) = -0.97

Response field log10(EC50) (human CB2 receptors (Homo sapiens (Human), UniProt P34972)) for item Cc1nc([C@](C)(CC2CC2)NC(=O)c2cc(OCC(F)(F)F)c(C3CC3)cn2)no1 (single isomer, unassigned; enantiomer b) [Example 67] : -2.43

Kindly note: human CB2 receptors (Homo sapiens (Human), UniProt P34972), Cn1nnnc1C(C)(CC1CC1)NC(=O)c1cc(OCC(F)(F)F)c(C2CC2)cn1 (single isomer, unassigned) [Example 228] , log10(EC50) value reported: -1.46

# log10(EC50) measured on human CB2 receptors (Homo sapiens (Human), UniProt P34972) for item CC(CC(N)=O)(NC(=O)c1cc(OCCF)c(C2CC2)cn1)C1CC1 (single isomer, unassigned) [Example 270] = -1.16

Hey, human CB2 receptors (Homo sapiens (Human), UniProt P34972) data for CC(CC1CC1)(NC(=O)c1cc(OCC(F)(F)F)c(C2CC2)cn1)c1noc(N)n1 (single isomer, unassigned) [Example 207] : log10(EC50) came out at -2.08

Tested on human CB2 receptors (Homo sapiens (Human), UniProt P34972): Cc1nc(C(NC(=O)c2cc(OCC(F)(F)F)c(C3CC3)cn2)C(C)(C)C)no1 (single isomer, unassigned) [Example 211] . Observed log10(EC50): -2.32

Summary line: Cn1nnc(C(NC(=O)c2cc(OCC(F)(F)F)c(C3CC3)cn2)C(C)(C)C)n1 (single isomer, unassigned) [Example 210] , human CB2 receptors (Homo sapiens (Human), UniProt P34972), reported log10(EC50) = -2.38
